Target: T1, human LILRA3 (human, UniProt Q8N6C8 24-439)
T1 construct: Over-expressed on CHO-s cells; also called hLILRA3
T1 sequence (Q8N6C8 24-439 limits assumed): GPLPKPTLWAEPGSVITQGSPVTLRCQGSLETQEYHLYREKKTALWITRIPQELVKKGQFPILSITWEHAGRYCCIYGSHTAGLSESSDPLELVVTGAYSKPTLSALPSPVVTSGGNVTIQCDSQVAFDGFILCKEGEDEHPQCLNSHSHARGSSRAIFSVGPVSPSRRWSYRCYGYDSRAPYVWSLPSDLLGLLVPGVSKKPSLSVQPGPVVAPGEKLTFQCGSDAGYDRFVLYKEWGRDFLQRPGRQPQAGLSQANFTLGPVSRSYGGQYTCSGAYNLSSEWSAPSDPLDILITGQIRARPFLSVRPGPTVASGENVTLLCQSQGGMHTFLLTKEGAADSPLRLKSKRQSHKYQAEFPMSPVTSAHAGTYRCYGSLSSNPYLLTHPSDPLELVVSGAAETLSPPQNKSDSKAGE
Experiment: flow cytometry, LILRA3 CHOs
measured quantity: binding result

binder="J-19.h4 (antibody, human IgG4 S228P, kappa, V domains shown, Humanized, human IgG4 backbone) VH: QVTLKESGPALVKPTHTLTLTCTFSGFSLNTYAMGVSWIRQPPGKALEWLASIWWNGNKYNNPSLKSRLTISKDTSKNQVVLTMTNMDPEDTATFYCAHSRIIRFTDYVMDAWGRGTTVTVSS VL: DIVMTQSPSSLSASVGDTVTITCRASEDIYNDLAWYQQKPGKAPQLLLYNANSLHTGVPSRFSGSGSGTDYTLTISTLQPEDFATYYCQQYYDYPLTFGPGTKVHIKR" measured_quantity="binding result" result="no binding"
binder="J-19.h1 (antibody, human IgG4 S228P, kappa, V domains shown, Humanized, human IgG4 backbone) VH: QITLKESGPTLVKPTQTLTLTCTFSGFSLNTYAMGVSWIRQPPGKALEWLASIWWNGNKYNNPSLKSRLTVTKDTSKNQVVLTMTNMDPVDTATYYCAHSRIIRFTDYVMDAWGQGTLVTVSS VL: DIQMTQSPSSLSTSVGDRVTITCRASEDIYNDLAWYQQKPGKAPKLLIYNANSLHTGVASRFSGSGSGTDFTFTISSLQPEDVATYFCQQYYDYPLTFGQGTKLEIKR" measured_quantity="binding result" result="no binding"
binder="J-19.h2 (antibody, human IgG4 S228P, kappa, V domains shown, Humanized, human IgG4 backbone) VH: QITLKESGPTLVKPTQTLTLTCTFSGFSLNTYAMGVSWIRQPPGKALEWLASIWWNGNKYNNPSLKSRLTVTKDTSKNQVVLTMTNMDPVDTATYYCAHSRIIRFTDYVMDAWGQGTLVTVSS VL: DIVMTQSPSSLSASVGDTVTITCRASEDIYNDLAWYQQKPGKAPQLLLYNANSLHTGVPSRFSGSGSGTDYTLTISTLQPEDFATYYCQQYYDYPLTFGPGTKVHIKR" measured_quantity="binding result" result="no binding"

Taken from patent US20200339690A1.
